# Assay Details: small-molecule microarray binders of probe aDKK1, primary screen, biochemical, biotinylated probe, 635/667 nm fluorescence (AID 1099);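 further: score merges 667nm spot fluorescence with signal to noise across triplicate slides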
# Condition Info: higher = more signal
Below is a list of entries, each paired with its recorded composite z-score value.
API doc: respond with a numeric literal and nothing else, no unit.

Answered examples (5):
>  <Molecule>
COC(=O)C(CC#Cc1ccc2c(c1)[C@]1(C(=O)N2)[C@H](C(=O)N2CCCCCCC2)[C@H]2C(=O)O[C@H](c3ccccc3)[C@H](c3ccccc3)N2[C@@H]1c1ccc(O)cc1)C(=O)OC

>  <composite z-score>
-0.2

$$$$
>  <Molecule>
CSCC[C@@H]1NC(=O)CC=C[C@@H](C)COC(=O)[C@H](CCSC)NC(=O)CC=C[C@@H](C)COC1=O

>  <composite z-score>
-0.396

$$$$
>  <Molecule>
CC(C)C[C@@H]1NC(=O)[C@H]2C[C@@H](C(=O)NCCCCCC[N+](C)(C)C)[C@@H](c3ccc(O)cc3)N2C1=O

>  <composite z-score>
-0.196

$$$$
>  <Molecule>
CO[C@@H]1COC(=O)[C@H](C)NC(=O)CC=C[C@@H](C)[C@H](OC)COC(=O)[C@H](C)NC(=O)CC=C[C@H]1C

>  <composite z-score>
-0.58

$$$$
>  <Molecule>
CO[C@H]1O[C@H](CO)[C@@H](OC(=O)Nc2ccc3c(c2)OCO3)[C@H](OC(=O)Nc2ccccc2)[C@@H]1OC(=O)Nc1ccccc1

>  <composite z-score>
0.0085

$$$$

Challenge: Entry `O=C1O[C@H](c2ccccc2)[C@H](c2ccccc2)N2[C@H]1[C@@H](C(=O)NC[C@H](O)c1ccccc1)[C@]1(C(=O)Nc3ccc(C#CC4(O)CCCCCC4)cc31)[C@H]2c1ccc(OCCO)cc1` : reported composite z-score = ?
Response given: 0.539

* * *

Below is a list of entries, each paired with its recorded composite z-score value.
# Target Under Test: Calmodulin-1 (Homo sapiens)
# Assay Details: calcium-bound CALM1 binders on microarrays, profiling panel, artefact control for SMM control-protein annotation, biochemical, small-molecule microarray, Cy5-labelled CALM1, plus calcium (AID 1112);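 further: score merges spot fluorescence with signal to noise from triplicate slides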
# Condition Info: Cy5-CALM1 binding fluorescence, higher = more signal
API doc: respond with a numeric literal and nothing else, no unit.

>  <Compound>
CO[C@@H]1COC(=O)[C@@H]2CCCN2C(=O)CC=C[C@@H](C)[C@H](OC)COC(=O)[C@@H]2CCCN2C(=O)CC=C[C@H]1C

>  <composite z-score>
-2.31

$$$$
>  <Compound>
CC(=O)NCCCC[C@@H]1NC(=O)[C@@H]2C[C@H](C(=O)NCCCCCCN(C)C)[C@H](c3ccc(O)cc3)N2C1=O

>  <composite z-score>
-1.14

$$$$
>  <Compound>
CCCC[C@H]1OB(O)C[C@H]2C1=C(COC)C[C@H]1C(=O)N(Cc3ccccc3)C(=O)[C@H]12

>  <composite z-score>
-0.0421

$$$$
>  <Compound>
CCCC=C(CCC)[C@@H](NS(=O)(=O)c1cccc(C(F)(F)F)c1)c1ccc(C(=O)OC)cc1

>  <composite z-score>
-0.385

$$$$
>  <Compound>
C#CCNC(/C=C/c1ccccc1)CO (configuration not stated)

>  <composite z-score>
-0.448

$$$$

Challenge: Entry `CCOC(=O)C[C@H]1[C@H](OC(=O)Cc2ccc3c(c2)OCO3)[C@@H](NC(=O)CC(C)C)c2cc(OCCCO)ccc2N1C(=O)c1ccccc1` : reported composite z-score = ?
Response given: -0.215

Challenge: Entry `COc1cc([C@@H]2N[C@H](C(=O)O)Cc3c2[nH]c2ccccc32)cc(OC)c1OC` : reported composite z-score = ?
Response given: -0.494
